These data points were gathered from patent US20240116985A1.

TARGET_ENTITY: full-length beta-Catenin (Uniprot ID P35222) (Homo sapiens (Human)) (UniProt P35222)
Sequence (P35222 whole entry): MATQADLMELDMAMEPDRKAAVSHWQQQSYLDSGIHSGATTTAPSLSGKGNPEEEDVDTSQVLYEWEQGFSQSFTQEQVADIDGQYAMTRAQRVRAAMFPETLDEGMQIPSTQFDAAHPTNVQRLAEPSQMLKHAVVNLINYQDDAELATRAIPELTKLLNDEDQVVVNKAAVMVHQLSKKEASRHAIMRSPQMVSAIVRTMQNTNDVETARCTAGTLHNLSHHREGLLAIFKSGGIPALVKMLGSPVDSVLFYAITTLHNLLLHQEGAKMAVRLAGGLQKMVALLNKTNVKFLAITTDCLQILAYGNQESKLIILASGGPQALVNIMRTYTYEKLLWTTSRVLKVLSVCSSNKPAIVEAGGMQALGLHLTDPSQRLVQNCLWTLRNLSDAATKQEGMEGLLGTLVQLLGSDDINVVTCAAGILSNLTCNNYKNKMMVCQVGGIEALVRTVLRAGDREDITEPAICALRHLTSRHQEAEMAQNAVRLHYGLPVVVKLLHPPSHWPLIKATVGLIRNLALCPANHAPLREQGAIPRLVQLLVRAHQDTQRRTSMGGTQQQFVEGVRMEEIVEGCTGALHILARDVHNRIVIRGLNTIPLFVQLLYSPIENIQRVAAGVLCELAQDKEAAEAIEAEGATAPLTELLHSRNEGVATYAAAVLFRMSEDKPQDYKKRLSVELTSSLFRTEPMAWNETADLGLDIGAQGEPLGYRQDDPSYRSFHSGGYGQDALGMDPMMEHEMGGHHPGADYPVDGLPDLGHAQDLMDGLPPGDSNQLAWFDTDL
ASSAY_PROTOCOL: fluorescence polarization competition; 10 nM full-length beta-catenin, competitor 10 nM 5FAM-TCF4(10-53)
pIC50: −log10 of the molar value. Starred links: 1 amine or outer side, 2 acyl side, 3 side chain; linkers in the order of their positions; H or OH if unused. Positions of bridges follow the written chain, without caps; N, C: chain ends. Non-standard residues stand in square brackets, D forms with d. Primed or numbered codes have the meaning given here. PyrS2(3) = (S)-3-amino-1-((pent-4-en-1-yloxy)carbonyl)pyrrolidine-3-carboxylic acid, stapling residue, C=CCCCOC(=O)N1CC[C@@](N[*:1])(C(=O)[*:2])C1; B5(18) = 2,2-bis(4-pentenyl)glycine (2-amino-2-(pent-4-en-1-yl)hept-6-enoic acid), stitching residue, C=CCCCC(CCCC=C)(N[*:1])C(=O)[*:2]; PyrS2 = (S)-3-amino-1-((pent-4-en-1-yloxy)carbonyl)pyrrolidine-3-carboxylic acid, C=CCCCOC(=O)N1CC[C@@](N[*:1])(C(=O)[*:2])C1; MorphAsn = (S)-2-amino-4-morpholino-4-oxobutanoic acid, O=C(C[C@H](N[*:1])C(=O)[*:2])N1CCOCC1; B5 = 2-amino-2-(pent-4-en-1-yl)hept-6-enoic acid, C=CCCCC(CCCC=C)(N[*:1])C(=O)[*:2]; Phe(3-COOH) = N[C@@H](Cc1cccc(C(=O)O)c1)C(=O)O; Phe(2-Cl) = N[C@@H](Cc1ccccc1Cl)C(=O)O; Bta = N[C@@H](Cc1csc2ccccc12)C(=O)O; αAllylPro = C=CC[C@@]1(C(=O)O)CCCN1; tBuAla = CC(C)(C)C[C@H](N)C(=O)O; Cha = N[C@@H](CC1CCCCC1)C(=O)O; hSer = N[C@@H](CCO)C(=O)O
Label rule, in plain words: pIC50 of 7 and up is 1.0, under 7 is 0.0.

### Prompt Could you verify whether the entry Ac-[αAllylPro]N[Cha][B5]DQ[hSer]AFL[PyrS2]F[Bta][MorphAsn]-NH2 (staple 1-4, 4-11) [I-2498] shows pIC50 of no less than 7?
### Response 0.0

### Prompt Ac-[αAllylPro]D[tBuAla][B5(18)]D[Phe(3-COOH)]AAFL[PyrS2(3)][Phe(2-Cl)][Bta]A-NH2 (staple 1-4, 4-11) [I-1851] , same question.
### Response 1.0
